- Test system: Rhizomucor miehei
- method.notes: Antifungal activity in vitro, resazurin growth inhibition: Rhizomucor miehei (IHEM13391)
- Type: cell-based
readout.kind: Inf. K: Rhizomucor miehei IHEM13391, pIC50
Form rule: numeric answer, no unit written next to it.

Hey, Rhizomucor miehei data for `CCc1ccc(C2=NCc3c(Cl)cc(Cl)cc3-n3cccc32)cn1` : Inf. K: Rhizomucor miehei IHEM13391, pIC50 came out at 4.49

Per the reported Rhizomucor miehei data, `Cc1cccc2c1CN=C(c1cc3ccccc3o1)c1cccn1-2` has Inf. K: Rhizomucor miehei IHEM13391, pIC50 of 4.81

Response field Inf. K: Rhizomucor miehei IHEM13391, pIC50 (Rhizomucor miehei) for item `Cc1ccc2cc(C3=NCc4c(C)cccc4-n4cccc43)oc2c1` : 4.68

Value (Inf. K: Rhizomucor miehei IHEM13391, pIC50, Rhizomucor miehei) for record `Clc1cccc2c1-n1cccc1C(c1ccc3ncsc3c1)=NC2` = 4.35

Inf. K: Rhizomucor miehei IHEM13391, pIC50 value, target or system Rhizomucor miehei, for `Fc1ccc2oc(C3=NCc4c(Cl)cccc4-n4cccc43)cc2c1` : 5.14

====

- Test system: Trichophyton mentagrophytes
- method.notes: Antifungal activity in vitro, resazurin growth inhibition: Trichophyton mentagrophytes (B70554)
- Assay type: cell-based
Assign Inf. G: Trichophyton mentagrophytes B70554, pIC50 to each entry below.

Summary for this compound, Br.CCn1ccc(C2NCc3c(Cl)cccc3-n3cccc32)n1 (racemic) : Inf. G: Trichophyton mentagrophytes B70554, pIC50 is <4.19

Consider `CCc1csc(C2=NCc3c(Cl)cc(Cl)cc3-n3cccc32)n1` . Its measured Inf. G: Trichophyton mentagrophytes B70554, pIC50 is <4.19

Recorded result, `Fc1cccc2c1CN=C(c1ccc3occ(Cl)c3c1)c1cccn1-2` , Inf. G: Trichophyton mentagrophytes B70554, pIC50: <4.19

Entry `Fc1cc(F)c2c(c1)-n1cccc1C(c1cnc(Cl)c(Cl)c1)=NC2` , Inf. G: Trichophyton mentagrophytes B70554, pIC50 reported as <4.19

Cc1ccc(Cl)c2c1-n1cccc1C(c1cc3ccccc3s1)NC2.Cl (racemic) yielded Inf. G: Trichophyton mentagrophytes B70554, pIC50 of <4.19

# compound `Cc1cccc2c1CN=C(c1cnc(C(F)(F)F)nc1)c1cccn1-2` ; its Inf. G: Trichophyton mentagrophytes B70554, pIC50 = <4.19

Data point: `Clc1cc2oc(C3=NCc4c(Cl)cccc4-n4cccc43)cc2cn1` ; Inf. G: Trichophyton mentagrophytes B70554, pIC50 = <4.49

Memo: `CCc1cnc(C2=NCc3c(Cl)cc(Cl)cc3-n3cccc32)s1` , reported Inf. G: Trichophyton mentagrophytes B70554, pIC50: <4.19

So, Cc1cccc(C2NCc3c(Cl)cccc3-n3cccc32)n1 (racemic) ? Its Inf. G: Trichophyton mentagrophytes B70554, pIC50 was <4.49

====

Kindly state Inf. C: Trichophyton rubrum B68183, pIC50 for each of the entries shown.
- Tested on: Trichophyton rubrum
- method.notes: Antifungal activity in vitro, resazurin growth inhibition: Trichophyton rubrum (B68183)
- Format: cell-based
In your answer, state the number alone without any accompanying words.

Recorded Inf. C: Trichophyton rubrum B68183, pIC50 for `FC(F)(F)c1ncc(C2=NCc3c(Cl)cc(Cl)cc3-n3cccc32)cn1` on Trichophyton rubrum was 5.91

Measured Inf. C: Trichophyton rubrum B68183, pIC50 for this entry `Fc1cccc2cc(C3=NCc4c(Cl)cc(Cl)cc4-n4cccc43)oc12` on Trichophyton rubrum: 6.10

The measured Inf. C: Trichophyton rubrum B68183, pIC50 that `Cn1nnc2ccc(C3=NCc4c(Cl)cc(Cl)cc4-n4cccc43)cc21` showed for Trichophyton rubrum is 6.09

Simply: Cl.Clc1ccc2oc(C3NCc4c(Cl)cccc4-n4cccc43)cc2c1 (racemic) , Trichophyton rubrum, Inf. C: Trichophyton rubrum B68183, pIC50 = 6.07

Let me check: `Cn1ccc2cc(C3=NCc4c(Cl)cccc4-n4cccc43)ccc21` , system Trichophyton rubrum, measured Inf. C: Trichophyton rubrum B68183, pIC50 is 6.18

Trichophyton rubrum data for `Fc1cccc2c1CN=C(c1ccc3scnc3c1)c1cccn1-2` ; its Inf. C: Trichophyton rubrum B68183, pIC50: 6.05

Tested system Trichophyton rubrum; Inf. C: Trichophyton rubrum B68183, pIC50 recorded for `Clc1cccc2c1CN=C(c1nc3ccccc3s1)c1cccn1-2` was 6.03

# `CCc1cnc(C2=NCc3c(Cl)cccc3-n3cccc32)s1` with Trichophyton rubrum: Inf. C: Trichophyton rubrum B68183, pIC50 is 6.18
